Measured isoTOP-ABPP ratio P24752_C119 accompanies every entry in the list below.
Biological target: cysteines in MDA-MB-231 and Ramos cells (Homo sapiens, UniProt P24752)
Sequence (P24752 34-427): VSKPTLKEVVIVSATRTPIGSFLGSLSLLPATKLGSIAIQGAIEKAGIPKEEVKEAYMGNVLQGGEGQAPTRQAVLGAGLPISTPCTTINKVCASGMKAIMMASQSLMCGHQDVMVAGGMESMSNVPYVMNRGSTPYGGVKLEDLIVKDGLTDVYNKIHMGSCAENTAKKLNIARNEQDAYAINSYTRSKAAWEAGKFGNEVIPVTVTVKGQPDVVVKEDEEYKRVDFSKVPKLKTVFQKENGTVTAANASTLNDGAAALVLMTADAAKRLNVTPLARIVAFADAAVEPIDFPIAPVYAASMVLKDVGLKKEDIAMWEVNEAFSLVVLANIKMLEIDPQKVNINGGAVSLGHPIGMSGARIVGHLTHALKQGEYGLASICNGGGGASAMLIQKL
Test: Competitive isoTOP-ABPP in situ (fragment-treated cells)
Type: cell-based
Conditions: 200 μM, insitu, 231
endpoint_name: isoTOP-ABPP ratio P24752_C119

>  <smiles_record>
C=CC(=O)N(Cc1cccnc1)c1cc(C(F)(F)F)cc(C(F)(F)F)c1

>  <endpoint_name>
isoTOP-ABPP ratio P24752_C119

>  <result>
0.6

$$$$
>  <smiles_record>
CC(C)CCOCCNC(=O)CCl

>  <endpoint_name>
isoTOP-ABPP ratio P24752_C119

>  <result>
1.6

$$$$
>  <smiles_record>
O=C(CCl)NC(=O)NC12CC3CC(CC(C3)C1)C2

>  <endpoint_name>
isoTOP-ABPP ratio P24752_C119

>  <result>
4.1

$$$$
>  <smiles_record>
O=C(CCl)N1CCN(S(=O)(=O)c2ccccc2F)CC1

>  <endpoint_name>
isoTOP-ABPP ratio P24752_C119

>  <result>
4.5

$$$$
>  <smiles_record>
O=C(CCl)NC12CC3CC(CC(C3)C1)C2

>  <endpoint_name>
isoTOP-ABPP ratio P24752_C119

>  <result>
1.6

$$$$

---

Target: ACAT1 C119 (P24752) (Homo sapiens)
Assay: Competitive isoTOP-ABPP, cell lysates
Format: binding
Details: 500 μm in-vitro ramos
endpoint_name: isoTOP-ABPP ratio (reactivity profile), P24752_C119

>  <compound>
O=C(CCl)N1CCOCC1 [compound 22]

>  <measured_number>
0.8

$$$$
>  <compound>
COc1ccccc1OCCNC(=O)CCl [compound 28]

>  <measured_number>
1.1

$$$$
>  <compound>
C=CC(=O)N(Cc1cccnc1)c1ccc(Oc2ccccc2)c(C(F)(F)F)c1 [compound 15]

>  <measured_number>
1.2

$$$$
>  <compound>
O=C(CCl)N1CCN(CC(=O)N2CCOCC2)CC1 [compound 29]

>  <measured_number>
0.6

$$$$
>  <compound>
CC(Br)C(=O)Nc1cc(C(F)(F)F)cc(C(F)(F)F)c1 (centres unmarked) [compound 24]

>  <measured_number>
1.3

$$$$
>  <compound>
N#C/C(=C\c1cc(C(F)(F)F)cc(C(F)(F)F)c1)C(N)=O [compound 23]

>  <measured_number>
2.0

$$$$
>  <compound>
O=C(CCl)N1CCC(C(O)(c2ccccc2)c2ccccc2)CC1 [compound 20]

>  <measured_number>
2.6

$$$$
>  <compound>
O=C(CCl)NC12CC3CC(CC(C3)C1)C2 [compound 21]

>  <measured_number>
1.1

$$$$
>  <compound>
O=C(/C=C/c1ccccc1)Nc1cc(C(F)(F)F)cc(C(F)(F)F)c1 [compound 26]

>  <measured_number>
1.0

$$$$
>  <compound>
CCN(CC)c1ccc(S(N)(=O)=O)cc1NC(=O)CCl [compound 30]

>  <measured_number>
0.7

$$$$
>  <compound>
CC(C)CCOCCNC(=O)CCl [compound 27]

>  <measured_number>
1.0

$$$$

---

Overview of recorded isoTOP-ABPP ratio, cysteine Q96P48_C900 for various compounds
Biological target: cysteines in MDA-MB-231 and Ramos cells (Homo sapiens, UniProt Q96P48)
Sequence (Q96P48 whole entry, the tested form may be a part): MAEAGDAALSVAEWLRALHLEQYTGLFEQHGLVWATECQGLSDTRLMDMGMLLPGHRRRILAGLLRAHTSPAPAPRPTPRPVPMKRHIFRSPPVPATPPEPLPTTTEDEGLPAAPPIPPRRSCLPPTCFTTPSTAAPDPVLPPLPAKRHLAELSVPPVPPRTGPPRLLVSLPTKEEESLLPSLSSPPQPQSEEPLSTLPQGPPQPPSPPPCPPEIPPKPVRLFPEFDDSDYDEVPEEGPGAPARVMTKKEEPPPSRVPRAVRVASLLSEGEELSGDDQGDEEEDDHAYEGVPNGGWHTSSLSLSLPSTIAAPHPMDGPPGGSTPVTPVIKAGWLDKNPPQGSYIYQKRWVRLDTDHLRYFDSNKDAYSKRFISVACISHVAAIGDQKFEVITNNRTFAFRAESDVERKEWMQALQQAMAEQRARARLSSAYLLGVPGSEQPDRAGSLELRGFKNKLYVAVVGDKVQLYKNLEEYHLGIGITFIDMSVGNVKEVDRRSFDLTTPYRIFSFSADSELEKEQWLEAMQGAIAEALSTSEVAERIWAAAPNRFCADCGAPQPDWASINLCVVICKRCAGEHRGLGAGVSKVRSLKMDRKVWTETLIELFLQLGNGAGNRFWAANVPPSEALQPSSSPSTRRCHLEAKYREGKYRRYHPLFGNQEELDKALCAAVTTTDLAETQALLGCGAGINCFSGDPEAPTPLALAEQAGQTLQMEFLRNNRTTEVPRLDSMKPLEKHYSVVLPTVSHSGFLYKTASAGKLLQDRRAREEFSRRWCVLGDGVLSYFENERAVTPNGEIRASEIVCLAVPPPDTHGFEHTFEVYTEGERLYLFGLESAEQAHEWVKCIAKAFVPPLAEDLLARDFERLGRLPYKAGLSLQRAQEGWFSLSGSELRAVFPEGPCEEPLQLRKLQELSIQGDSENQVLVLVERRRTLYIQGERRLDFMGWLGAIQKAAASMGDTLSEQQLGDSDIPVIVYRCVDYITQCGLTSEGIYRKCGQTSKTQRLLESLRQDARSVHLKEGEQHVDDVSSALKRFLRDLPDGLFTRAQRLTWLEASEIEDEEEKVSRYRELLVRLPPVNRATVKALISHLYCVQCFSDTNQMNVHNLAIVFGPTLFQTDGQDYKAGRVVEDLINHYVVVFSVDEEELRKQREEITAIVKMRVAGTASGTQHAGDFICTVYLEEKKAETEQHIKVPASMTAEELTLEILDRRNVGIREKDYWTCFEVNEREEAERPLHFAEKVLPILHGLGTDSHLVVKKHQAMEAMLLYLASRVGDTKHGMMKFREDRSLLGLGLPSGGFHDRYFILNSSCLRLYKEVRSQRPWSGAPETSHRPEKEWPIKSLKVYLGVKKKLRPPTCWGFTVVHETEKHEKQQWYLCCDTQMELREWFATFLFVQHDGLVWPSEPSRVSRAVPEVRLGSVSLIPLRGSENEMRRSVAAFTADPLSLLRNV
Assay: Competitive isoTOP-ABPP in situ (fragment-treated cells)
Assay type: cell-based
Settings: 200 μM, insitu, 231

>  <smiles_record>
O=C(CCl)N1CCN(S(=O)(=O)c2ccccc2F)CC1

>  <isoTOP-ABPP ratio, cysteine Q96P48_C900>
1.8

$$$$
>  <smiles_record>
O=C(CCl)NC(=O)NC12CC3CC(CC(C3)C1)C2

>  <isoTOP-ABPP ratio, cysteine Q96P48_C900>
1.9

$$$$
>  <smiles_record>
O=C(CCl)NC12CC3CC(CC(C3)C1)C2

>  <isoTOP-ABPP ratio, cysteine Q96P48_C900>
0.7

$$$$
>  <smiles_record>
O=C(CCl)NCCc1c[nH]c2ccccc12

>  <isoTOP-ABPP ratio, cysteine Q96P48_C900>
1.2

$$$$

---

Target: PDIA6 C190 (Q15084) (Homo sapiens, UniProt Q15084)
Sequence (Q15084 20-440): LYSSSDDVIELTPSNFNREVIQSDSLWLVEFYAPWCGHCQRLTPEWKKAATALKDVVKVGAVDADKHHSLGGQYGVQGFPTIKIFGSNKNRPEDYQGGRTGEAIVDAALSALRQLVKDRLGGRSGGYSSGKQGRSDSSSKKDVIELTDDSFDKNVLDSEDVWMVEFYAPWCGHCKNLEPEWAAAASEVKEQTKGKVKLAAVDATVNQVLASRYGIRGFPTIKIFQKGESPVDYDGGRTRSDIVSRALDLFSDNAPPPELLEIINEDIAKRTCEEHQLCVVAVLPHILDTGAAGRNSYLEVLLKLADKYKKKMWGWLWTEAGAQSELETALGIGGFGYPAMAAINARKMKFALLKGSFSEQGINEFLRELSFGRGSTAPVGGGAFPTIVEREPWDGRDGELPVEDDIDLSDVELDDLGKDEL
Test: Competitive isoTOP-ABPP, cell lysates;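 on isoTOP-ABPP reactivity profile ratio, Q15084 C190: Heavy/light ratio DMSO over fragment-treated so higher means more cysteine engagement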
Format: binding
Conditions: 500 μm, in-vitro_ramos_231
endpoint_name: isoTOP-ABPP reactivity profile ratio, Q15084_C190

>  <compound>
C=CC(=O)N(c1ccccc1)C1CCCCC1

>  <study_system>
PDIA6 C190 (Q15084) (Homo sapiens, UniProt Q15084)

>  <result>
0.9

$$$$
>  <compound>
C=CC(=O)N1CCC(Cc2ccccc2)CC1

>  <study_system>
PDIA6 C190 (Q15084) (Homo sapiens, UniProt Q15084)

>  <result>
1.0

$$$$
>  <compound>
COc1cc(NC(=O)CCl)cc(OC)c1

>  <study_system>
PDIA6 C190 (Q15084) (Homo sapiens, UniProt Q15084)

>  <result>
20.0

$$$$
>  <compound>
Cc1ncc(CO)c(CNC(=O)CCl)c1O

>  <study_system>
PDIA6 C190 (Q15084) (Homo sapiens, UniProt Q15084)

>  <result>
1.2

$$$$
>  <compound>
Cc1ccc(C(F)(F)F)cc1NC(=O)CCl

>  <study_system>
PDIA6 C190 (Q15084) (Homo sapiens, UniProt Q15084)

>  <result>
7.7

$$$$
>  <compound>
O=C(CCl)NC1C(O)OC(CO)C(O)C1O (mixture of isomers)

>  <study_system>
PDIA6 C190 (Q15084) (Homo sapiens, UniProt Q15084)

>  <result>
1.0

$$$$
>  <compound>
O=C(CCl)Nc1ccc(-c2ccccc2)cc1

>  <study_system>
PDIA6 C190 (Q15084) (Homo sapiens, UniProt Q15084)

>  <result>
1.0

$$$$

---

Here the recorded isoTOP-ABPP ratio P57764_C268 is given for each entry.
Target: cysteines in MDA-MB-231 and Ramos cells (Homo sapiens, UniProt P57764)
Sequence (P57764 1-484): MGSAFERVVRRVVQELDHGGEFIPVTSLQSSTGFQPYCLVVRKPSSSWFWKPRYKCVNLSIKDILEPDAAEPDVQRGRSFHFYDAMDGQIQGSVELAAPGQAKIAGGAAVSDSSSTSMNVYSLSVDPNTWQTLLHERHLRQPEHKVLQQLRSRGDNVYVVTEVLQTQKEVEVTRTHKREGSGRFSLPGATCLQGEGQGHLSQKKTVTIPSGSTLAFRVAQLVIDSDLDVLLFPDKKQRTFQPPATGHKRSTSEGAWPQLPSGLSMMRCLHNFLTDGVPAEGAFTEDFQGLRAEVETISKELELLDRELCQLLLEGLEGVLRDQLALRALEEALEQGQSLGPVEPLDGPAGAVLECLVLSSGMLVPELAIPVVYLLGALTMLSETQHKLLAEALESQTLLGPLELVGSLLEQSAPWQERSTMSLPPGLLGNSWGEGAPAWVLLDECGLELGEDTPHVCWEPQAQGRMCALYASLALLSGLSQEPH
Test: Competitive isoTOP-ABPP in situ (fragment-treated cells)
Format: cell-based
Conditions: 200 μM, insitu, 231

>  <compound>
CC(C)CCOCCNC(=O)CCl

>  <isoTOP-ABPP ratio P57764_C268>
0.6

$$$$
>  <compound>
O=C(CCl)NC12CC3CC(CC(C3)C1)C2

>  <isoTOP-ABPP ratio P57764_C268>
0.7

$$$$
>  <compound>
CC1CCc2ccccc2N1C(=O)CCl (stereo not drawn)

>  <isoTOP-ABPP ratio P57764_C268>
20.0

$$$$
>  <compound>
C=CC(=O)Nc1cc(F)c(N2CCN(C(=O)OC(C)(C)C)CC2)c(F)c1

>  <isoTOP-ABPP ratio P57764_C268>
1.8

$$$$
>  <compound>
Cc1ccc(C=C(C#N)C(=O)NCCN2CCOCC2)cc1

>  <isoTOP-ABPP ratio P57764_C268>
0.6

$$$$
>  <compound>
O=C(CCl)Nc1cccc2ncccc12

>  <isoTOP-ABPP ratio P57764_C268>
1.8

$$$$

---

Target: cysteines in MDA-MB-231 and Ramos cells (Homo sapiens, UniProt Q9Y6G9)
Sequence (Q9Y6G9 whole entry, the tested form may be a part): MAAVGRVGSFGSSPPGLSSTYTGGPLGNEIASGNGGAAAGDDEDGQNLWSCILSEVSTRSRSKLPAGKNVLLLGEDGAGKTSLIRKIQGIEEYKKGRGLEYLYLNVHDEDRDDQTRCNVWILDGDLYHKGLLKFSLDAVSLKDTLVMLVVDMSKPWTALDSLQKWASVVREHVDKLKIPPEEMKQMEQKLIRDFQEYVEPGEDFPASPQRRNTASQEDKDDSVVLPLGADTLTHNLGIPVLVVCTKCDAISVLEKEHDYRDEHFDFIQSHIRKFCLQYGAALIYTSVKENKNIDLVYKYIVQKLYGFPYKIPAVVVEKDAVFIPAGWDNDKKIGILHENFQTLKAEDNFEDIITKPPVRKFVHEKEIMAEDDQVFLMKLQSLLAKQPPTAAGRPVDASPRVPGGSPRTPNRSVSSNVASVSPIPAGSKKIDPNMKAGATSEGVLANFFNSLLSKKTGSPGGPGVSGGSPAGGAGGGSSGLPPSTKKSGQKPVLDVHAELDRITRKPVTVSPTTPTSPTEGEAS
Test: Competitive isoTOP-ABPP in situ (fragment-treated cells)
Type: cell-based
Details: 200 μM, insitu, 231
endpoint_name: isoTOP-ABPP ratio Q9Y6G9_C51

>  <compound>
Cc1ccc(C=C(C#N)C(=O)NCCN2CCOCC2)cc1 [compound 41]

>  <measured_number>
0.7

$$$$
>  <compound>
O=C(CCl)NC12CC3CC(CC(C3)C1)C2 [compound 21]

>  <measured_number>
0.6

$$$$
>  <compound>
O=C(CCl)N1CCN(S(=O)(=O)c2ccccc2F)CC1 [compound 10]

>  <measured_number>
4.9

$$$$
>  <compound>
COc1ccccc1OCCNC(=O)CCl [compound 28]

>  <measured_number>
0.7

$$$$
>  <compound>
O=C(CCl)NC(=O)NC12CC3CC(CC(C3)C1)C2 [compound 12]

>  <measured_number>
6.5

$$$$
>  <compound>
CC(C)CCOCCNC(=O)CCl [compound 27]

>  <measured_number>
0.6

$$$$
